- Tested on: Staphylococcus aureus V41
- Measurement Description: MIC, standard agar-dilution assay, Staphylococcus aureus V41
- Assay type: cell-based
- Assay Context: Staphylococcus aureus V41; penicillin-resistant strain; agar dilution

Compound	Target Under Test	Units	MIC
CCC1OC(=O)CC(O)C(C)C(OC2OC(C)C(OC3CC(C)(O)C(O)C(C)O3)C(N(C)C)C2O)C(CCOc2ccccc2)CC(C)C(=O)C=CC(C)=CC1COC1OC(C)C(O)C(O)C1OC (centres unmarked)	Staphylococcus aureus V41	µg/mL	2
CCC1OC(=O)CC(O)C(C)C(OC2OC(C)C(O)C(N(C)C)C2O)C(CCN2C(=O)c3ccccc3C2=O)CC(C)C(=O)C=CC(C)=CC1COC1OC(C)C(O)C(OC)C1OC (centres unmarked)	Staphylococcus aureus V41	µg/mL	0.12

---

- System: Staphylococcus epidermidis EPI2
- Measurement Description: MIC, standard agar-dilution assay, Staphylococcus epidermidis EPI2
- Assay type: cell-based
- Assay Context: Staphylococcus epidermidis, EPI2

Molecule	Units	MIC
CCOC(=O)NN(CCC1CC(C)C(=O)C=CC(C)=CC(COC2OC(C)C(O)C(OC)C2OC)C(CC)OC(=O)CC(O)C(C)C1OC1OC(C)C(OC2CC(C)(O)C(O)C(C)O2)C(N(C)C)C1O)C(=O)OCC (stereo not drawn)	µg/mL	2
CCC1OC(=O)CC(O)C(C)C(OC2OC(C)C(OC3CC(C)(O)C(O)C(C)O3)C(N(C)C)C2O)C(CCF)CC(C)C(=O)C=CC(C)=CC1COC1OC(C)C(O)C(OC)C1OC (stereo not drawn)	µg/mL	1
CCC1OC(=O)CC(O)C(C)C(OC2OC(C)C(OC3CC(C)(O)C(O)C(C)O3)C(N(C)C)C2O)C(CCNC(=O)Cc2ccccc2)CC(C)C(=O)C=CC(C)=CC1COC1OC(C)C(O)C(OC)C1OC (stereo not drawn)	µg/mL	0.5
CCOC(=O)C1CSC(CC2CC(C)C(=O)C=CC(C)=CC(COC3OC(C)C(O)C(OC)C3OC)C(CC)OC(=O)CC(O)C(C)C2OC2OC(C)C(O)C(N(C)C)C2O)N1 (stereo not drawn)	µg/mL	0.25
CCC1OC(=O)CC(O)C(C)C(OC2OC(C)C(OC3CC(C)(O)C(O)C(C)O3)C(N(C)C)C2O)C(CCOC(=O)c2nn(CC)c3cc4c(cc3c2=O)OCO4)CC(C)C(=O)C=CC(C)=CC1COC1OC(C)C(O)C(OC)C1OC (stereo not drawn)	µg/mL	8
CCC1OC(=O)CC(O)C(C)C(OC2OC(C)C(OC3CC(C)(O)C(O)C(C)O3)C(N(C)C)C2O)C(CCOc2ccc(C(=O)c3ccccc3)cc2)CC(C)C(=O)C=CC(C)=CC1COC1OC(C)C(O)C(OC)C1OC (stereo not drawn)	µg/mL	1
CCOC(=O)c1ccc(OCCC2CC(C)C(=O)C=CC(C)=CC(COC3OC(C)C(O)C(OC)C3OC)C(CC)OC(=O)CC(O)C(C)C2OC2OC(C)C(O)C(N(C)C)C2O)cc1 (stereo not drawn)	µg/mL	0.25
CCC1OC(=O)CC(O)C(C)C(OC2OC(C)C(OC3CC(C)(O)C(O)C(C)O3)C(N(C)C)C2O)C(CCOc2cc(Cl)cc(Cl)c2)CC(C)C(=O)C=CC(C)=CC1COC1OC(C)C(O)C(OC)C1OC (stereo not drawn)	µg/mL	1
CCC1OC(=O)CC(O)C(C)C(OC2OC(C)C(OC3CC(C)(O)C(O)C(C)O3)C(N(C)C)C2O)C(CCOC(=O)COc2ccccc2)CC(C)C(=O)C=CC(C)=CC1COC1OC(C)C(O)C(OC)C1OC (stereo not drawn)	µg/mL	0.5

---

- Tested on: Mycoplasma synoviae
- Measurement Description: MIC, broth-dilution microtiter test, Mycoplasma synoviae
- Assay type: cell-based
- Assay Context: Mycoplasmopsis synoviae
Each record is given TRUE if its reported MIC is strictly below 6 µg/mL. Records at or above 6 µg/mL are given FALSE.

Molecule	Group
CCC1OC(=O)CC(O)C(C)C(OC2OC(C)C(O)C(N(C)C)C2O)C(CCOC(C(F)(F)F)C(F)(F)F)CC(C)C(=O)C=CC(C)=CC1COC1OC(C)C(O)C(OC)C1OC (stereo not drawn)	TRUE
CCC1OC(=O)CC(O)C(C)C(OC2OC(C)C(OC3CC(C)(O)C(O)C(C)O3)C(N(C)C)C2O)C(CCOc2ccc(C(=O)c3ccccc3)cc2)CC(C)C(=O)C=CC(C)=CC1COC1OC(C)C(O)C(OC)C1OC (stereo not drawn)	FALSE
CCC1OC(=O)CC(O)C(C)C(OC2OC(C)C(O)C(N(C)C)C2O)C(CCF)CC(C)C(=O)C=CC(C)=CC1COC1OC(C)C(O)C(OC)C1OC (stereo not drawn)	FALSE
CCC1OC(=O)CC(O)C(C)C(OC2OC(C)C(OC3CC(C)(O)C(O)C(C)O3)C(N(C)C)C2O)C(CCOS(=O)(=O)c2ccc(C)cc2)CC(C)C(=O)C=CC(C)=CC1COC1OC(C)C(O)C(O)C1OC (stereo not drawn)	FALSE
CCC1OC(=O)CC(O)C(C)C(OC2OC(C)C(O)C(N(C)C)C2O)C(CC2OCCO2)CC(C)C(=O)C=CC(C)=CC1COC1OC(C)C(O)C(OC)C1OC (stereo not drawn)	FALSE
CCOC(=O)c1ccc(OCCC2CC(C)C(=O)C=CC(C)=CC(COC3OC(C)C(O)C(OC)C3OC)C(CC)OC(=O)CC(O)C(C)C2OC2OC(C)C(O)C(N(C)C)C2O)cc1 (stereo not drawn)	TRUE
CCC1OC(=O)CC(O)C(C)C(OC2OC(C)C(O)C(N(C)C)C2O)C(CCOC)CC(C)C(=O)C=CC(C)=CC1COC1OC(C)C(O)C(OC)C1OC (stereo not drawn)	TRUE
CCC1OC(=O)CC(O)C(C)C(OC2OC(C)C(OC3CC(C)(O)C(O)C(C)O3)C(N(C)C)C2O)C(C)CC(C)C(=O)C=CC(C)=CC1COC1OC(C)C(O)C(O)C1OC (stereo not drawn)	TRUE
CCC1OC(=O)CC(O)C(C)C(OC2OC(C)C(O)C(N(C)C)C2O)C(CCI)CC(C)C(=O)C=CC(C)=CC1COC1OC(C)C(O)C(O)C1OC (stereo not drawn)	TRUE
CCOC(=O)C1CSC(CC2CC(C)C(=O)C=CC(C)=CC(COC3OC(C)C(O)C(OC)C3OC)C(CC)OC(=O)CC(O)C(C)C2OC2OC(C)C(O)C(N(C)C)C2O)N1 (stereo not drawn)	TRUE
CCC1OC(=O)CC(O)C(C)C(OC2OC(C)C(OC3CC(C)(O)C(O)C(C)O3)C(N(C)C)C2O)C(CCN=[N+]=[N-])CC(C)C(=O)C=CC(C)=CC1COC1OC(C)C(O)C(OC)C1OC (stereo not drawn)	FALSE
CCC1OC(=O)CC(O)C(C)C(OC2OC(C)C(O)C(N(C)C)C2O)C(CCOc2ccc(C(=O)c3ccccc3)cc2)CC(C)C(=O)C=CC(C)=CC1COC1OC(C)C(O)C(OC)C1OC (stereo not drawn)	TRUE

---

- Tested on: Staphylococcus aureus X400
- Measurement Description: MIC, standard agar-dilution assay, Staphylococcus aureus X400
- Type: cell-based
- Assay Context: Staphylococcus aureus X400; methicillin-resistant strain; agar dilution; read-out: MIC

Molecule	Target Under Test	MIC (µg/mL)
CCC1OC(=O)CC(O)C(C)C(OC2OC(C)C(O)C(N(C)C)C2O)C(CCF)CC(C)C(=O)C=CC(C)=CC1COC1OC(C)C(O)C(OC)C1OC (stereo not shown) [Compound 22, 20-DH-DO-20-Fluorodesmycosin]	Staphylococcus aureus X400	0.5
CCC1OC(=O)CC(O)C(C)C(OC2OC(C)C(OC3CC(C)(O)C(O)C(C)O3)C(N(C)C)C2O)C(CCOc2ccccc2)CC(C)C(=O)C=CC(C)=CC1COC1OC(C)C(O)C(OC)C1OC (stereo not shown) [Compound 4, 20-DH-20-O-Phenyltylosin]	Staphylococcus aureus X400	2
CCC1OC(=O)CC(O)C(C)C(OC2OC(C)C(OC3CC(C)(O)C(O)C(C)O3)C(N(C)C)C2O)C(CCOc2ccc(OC)cc2)CC(C)C(=O)C=CC(C)=CC1COC1OC(C)C(O)C(OC)C1OC (stereo not shown) [Compound 14, 20-DH-20-O-(p-Methoxyphenyl)tylosin]	Staphylococcus aureus X400	2
CCC1OC(=O)CC(O)C(C)C(OC2OC(C)C(O)C(N(C)C)C2O)C(CCCl)CC(C)C(=O)C=CC(C)=CC1COC1OC(C)C(O)C(OC)C1OC (stereo not shown) [Compound 21, 20-DH-DO-20-Chlorodesmycosin]	Staphylococcus aureus X400	0.5

---

Measured MIC, listed per entry for reference.
- Test system: Streptococcus Group D X66
- Measurement Description: MIC, standard agar-dilution assay, Streptococcus Group D X66
- Type: cell-based
- Assay Context: Streptococcus Group D X66; agar dilution

Compound	MIC / mg/L
CCC1OC(=O)CC(O)C(C)C(OC2OC(C)C(OC(C)=O)C(N(C)C)C2OC(C)=O)C(CCOc2ccccc2)CC(C)C(=O)C=CC(C)=CC1COC1OC(C)C(O)C(OC)C1OC (stereo not shown) [Compound 68]	4
CCC1OC(=O)CC(O)C(C)C(OC2OC(C)C(O)C(N(C)C)C2OC(C)=O)C(CCOc2ccccc2)CC(C)C(=O)C=CC(C)=CC1COC1OC(C)C(O)C(OC)C1OC (stereo not shown) [Compound 67, 20-DH-20-O-Phenyl-2'-O-acetyldesmycosin]	4
CC(=O)O.CC(=O)O.CCC1OC(=O)CC(O)C(C)C(OC2OC(C)C(O)C(N(C)C)C2O)C(CCN)CC(C)C(=O)C=CC(C)=CC1COC1OC(C)C(O)C(OC)C1OC (stereo not shown) [Compound 51b, 20-DH-DO-20-Aminodesmycosin diacetate]	128
CC[C@H]1OC(=O)C[C@@H](O)[C@H](C)[C@@H](O[C@@H]2O[C@H](C)[C@H](O)[C@H](N(C)C)[C@H]2O)[C@@H](CCOc2ccccc2)C[C@@H](C)C(=O)/C=C/C(C)=C/[C@@H]1COC1O[C@H](C)[C@@H](O)[C@@H](OC)[C@H]1OC (stereo partly shown) [Compound 33, 20-DH-20-O-Phenyldesmycosin]	8
